Target: Estrogen receptor (Homo sapiens)
Sequence (P03372 whole entry): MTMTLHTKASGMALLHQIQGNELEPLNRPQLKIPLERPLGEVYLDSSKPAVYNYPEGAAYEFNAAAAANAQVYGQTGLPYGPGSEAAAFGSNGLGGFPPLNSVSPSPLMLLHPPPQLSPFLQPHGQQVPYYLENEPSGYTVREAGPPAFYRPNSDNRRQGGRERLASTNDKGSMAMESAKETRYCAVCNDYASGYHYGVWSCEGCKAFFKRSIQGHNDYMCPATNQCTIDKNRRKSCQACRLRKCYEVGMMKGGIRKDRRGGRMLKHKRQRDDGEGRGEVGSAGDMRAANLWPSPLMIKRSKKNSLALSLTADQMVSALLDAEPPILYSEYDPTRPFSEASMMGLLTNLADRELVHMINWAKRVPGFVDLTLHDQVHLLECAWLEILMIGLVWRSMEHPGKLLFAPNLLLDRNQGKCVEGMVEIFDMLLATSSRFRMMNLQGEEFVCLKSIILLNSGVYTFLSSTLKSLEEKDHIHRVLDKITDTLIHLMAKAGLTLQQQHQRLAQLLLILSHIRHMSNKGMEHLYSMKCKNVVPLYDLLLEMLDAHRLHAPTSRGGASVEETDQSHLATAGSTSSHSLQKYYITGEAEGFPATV
Each record here notes measured EC50.
Write the value in nM as a bare number.

# test.smiles, EC50, nM
measured = [
    ("CC(=O)C1(C(C)=O)Cc2ccc([C@]3(O)CC[C@H]4[C@@H]5CCc6cc(O)ccc6[C@H]5CC[C@@]43C)cc2C1", 336),
]

We next turn to a different compound, shown below.
Any idea what EC50 came out for CCOC(=O)C1(C(=O)OCC)Cc2ccc([C@]3(O)CC[C@H]4[C@@H]5CCc6cc(O)ccc6[C@H]5CC[C@@]43C)cc2C1 on Estrogen receptor (Homo sapiens)?
14.1

====

These compounds were tested on Estrogen receptor beta (Homo sapiens, UniProt Q92731); EC50 is the recorded read-out.
Sequence (Q92731 whole entry): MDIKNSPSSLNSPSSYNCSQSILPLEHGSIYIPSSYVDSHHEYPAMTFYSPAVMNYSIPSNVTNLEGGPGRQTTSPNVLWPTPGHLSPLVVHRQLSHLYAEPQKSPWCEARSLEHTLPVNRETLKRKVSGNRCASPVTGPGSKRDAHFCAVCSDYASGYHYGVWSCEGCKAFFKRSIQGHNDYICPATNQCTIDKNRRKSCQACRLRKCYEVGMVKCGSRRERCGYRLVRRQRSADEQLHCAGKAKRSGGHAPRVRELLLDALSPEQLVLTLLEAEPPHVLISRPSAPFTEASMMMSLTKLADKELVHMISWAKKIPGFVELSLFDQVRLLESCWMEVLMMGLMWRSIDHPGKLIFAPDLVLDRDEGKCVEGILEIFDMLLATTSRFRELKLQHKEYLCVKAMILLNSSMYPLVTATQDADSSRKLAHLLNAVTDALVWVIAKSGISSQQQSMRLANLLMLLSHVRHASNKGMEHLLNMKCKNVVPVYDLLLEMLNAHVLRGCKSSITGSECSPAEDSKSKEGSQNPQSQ
# number then unit; no other words

Example results:
# compound, EC50
data = [
    ("CCOC(=O)C1(C#N)Cc2ccc([C@]3(O)CC[C@H]4[C@@H]5CCc6cc(O)ccc6[C@H]5CC[C@@]43C)cc2C1 (some centres undefined)", "22.7 nM"),
    ("Cc1ccc(S(=O)(=O)N2Cc3ccc([C@]4(O)CC[C@H]5[C@@H]6CCc7cc(O)ccc7[C@H]6CC[C@@]54C)cc3C2)cc1", "242 nM"),
    ("CCOC(=O)C1(C(C)=O)Cc2ccc([C@]3(O)CC[C@H]4[C@@H]5CCc6cc(O)ccc6[C@H]5CC[C@@]43C)cc2C1 (some centres undefined)", "34.6 nM"),
]

Switching to the query record.
Fill in: EC50 of CC(=O)C1(C(C)=O)Cc2ccc([C@]3(O)CC[C@H]4[C@@H]5CCc6cc(O)ccc6[C@H]5CC[C@@]43C)cc2C1 is ___
221 nM
